Test: Plasma pharmacokinetics of Compound 2 in PD participants (LC-MS/MS)
Type: in vivo, human
Settings: human, plasma, oral, plasma, Week 4, ROW participants, across all doses tested; read-out: median tmax values
measured_parameter: Tmax

Inquiry: Sample CC(C)(NC(=O)O[C@@H]1CN2CCC1CC2)c1csc(-c2ccc(F)cc2)n1 [Compound 2] — what was its Tmax?
Reply text: 1.96 to 3.55 h

---

Assay: Plasma pharmacokinetics of Compound 2 in PD participants (LC-MS/MS)
Assay type: in vivo, human
Settings: human, plasma, po, 15 mg, plasma, Week 4; ROW, High 15 mg once daily oral, n = 4; read-out: AUC0-24, mean
measured_parameter: AUC(0-t) (ng·h/mL)
Answers are plain numbers, in ng·h/mL.

Inquiry: Sample CC(C)(NC(=O)O[C@@H]1CN2CCC1CC2)c1csc(-c2ccc(F)cc2)n1 — what was its AUC(0-t)?
Reply text: 2510

---

Assay: Plasma pharmacokinetics of Compound 2 in PD participants (LC-MS/MS)
Format: in vivo, human
Conditions: human, plasma, po, 8 mg, plasma, Day 1; ROW, Mid 8 mg oral, n = 5; read-out: AUC0-48, Geometric mean
measured_parameter: AUC(0-t) (ng·h/mL)
One number for each entry, in ng·h/mL.

Inquiry: Need AUC(0-t), item CC(C)(NC(=O)O[C@@H]1CN2CCC1CC2)c1csc(-c2ccc(F)cc2)n1 [Compound 2]
Reply text: 735

---

Assay: Plasma pharmacokinetics of Compound 2 in PD participants (LC-MS/MS)
Format: in vivo, human
Settings: human, plasma, po, 8 mg, plasma, Week 4; Japan, Mid 8 mg once daily oral, n = 3; read-out: tmax, median
measured_parameter: Tmax (h)
Answers are plain numbers, in h.

Inquiry: If you can, please state the reported Tmax value of CC(C)(NC(=O)O[C@@H]1CN2CCC1CC2)c1csc(-c2ccc(F)cc2)n1 .
Reply text: 2.12

---

Assay: Plasma pharmacokinetics of Compound 2 in PD participants (LC-MS/MS)
Type: in vivo, human
Conditions: human, plasma, po, 15 mg, plasma, Day 1; Japan, High 15 mg oral, n = 3; read-out: AUC0-48, Geometric mean
Description: Participants were randomised to 3 doses of once-daily orally administered Compound 2 or placebo, in sequential cohort design, and were followed up to 36 weeks (52 weeks for Japanese participants). […] The secondary outcome was to evaluate the pharmacokinetic profile of Compound 2 in plasma and cerebrospinal fluid (CSF) over a 4-week period. […] All parameters were assessed at Week 0 and Week 4 after treatment. […]
measured_parameter: AUC(0-t) (ng·h/mL)
Answers are plain numbers, in ng·h/mL.

Inquiry: Give its AUC(0-t) value. Item: CC(C)(NC(=O)O[C@@H]1CN2CCC1CC2)c1csc(-c2ccc(F)cc2)n1 [Compound 2]
Reply text: 1570

---

Assay: Plasma pharmacokinetics of Compound 2 in PD participants (LC-MS/MS)
Assay type: in vivo, human
Conditions: human, plasma, po, 15 mg, plasma, Week 4; ROW, High 15 mg once daily oral, n = 4; read-out: Cmax, Geometric mean
Procedure: Participants were randomised to 3 doses of once-daily orally administered Compound 2 or placebo, in sequential cohort design, and were followed up to 36 weeks (52 weeks for Japanese participants). […] The secondary outcome was to evaluate the pharmacokinetic profile of Compound 2 in plasma and cerebrospinal fluid (CSF) over a 4-week period. […] All parameters were assessed at Week 0 and Week 4 after treatment. […]
measured_parameter: Cmax (ng/mL)
One number for each entry, in ng/mL.

Inquiry: What Cmax value was documented for this compound, CC(C)(NC(=O)O[C@@H]1CN2CCC1CC2)c1csc(-c2ccc(F)cc2)n1 [Compound 2] ?
Reply text: 135

---

Assay: Plasma pharmacokinetics of Compound 2 in PD participants (LC-MS/MS)
Assay type: in vivo, human
Conditions: human, plasma, po, 15 mg, plasma, Day 1; Japan, High 15 mg oral, n = 3; read-out: AUC0-24, Geometric mean
measured_parameter: AUC(0-t) (ng·h/mL)
Numbers only, in ng·h/mL.

Inquiry: Request the reported AUC(0-t) associated with CC(C)(NC(=O)O[C@@H]1CN2CCC1CC2)c1csc(-c2ccc(F)cc2)n1 [Compound 2]
Reply text: 977

---

Assay: Plasma pharmacokinetics of Compound 2 in PD participants (LC-MS/MS)
Format: in vivo, human
Conditions: human, plasma, po, 8 mg, plasma, Week 4; ROW, Mid 8 mg once daily oral, n = 5; read-out: Cmax, Geometric mean
measured_parameter: Cmax (ng/mL)
Numbers only, in ng/mL.

Inquiry: Suppose we examine the compound CC(C)(NC(=O)O[C@@H]1CN2CCC1CC2)c1csc(-c2ccc(F)cc2)n1 [Compound 2] ; what Cmax value has been reported?
Reply text: 75.8

---

Assay: Plasma pharmacokinetics of Compound 2 in PD participants (LC-MS/MS)
Assay type: in vivo, human
Conditions: human, plasma, po, 4 mg, plasma, Day 1; Japan, Low 4 mg oral, n = 3; read-out: Cmax, Geometric mean
measured_parameter: Cmax (ng/mL)
One number for each entry, in ng/mL.

Inquiry: Which measured Cmax value corresponds to CC(C)(NC(=O)O[C@@H]1CN2CCC1CC2)c1csc(-c2ccc(F)cc2)n1 ?
Reply text: 21.7

---

Assay: Plasma pharmacokinetics of Compound 2 in PD participants (LC-MS/MS)
Type: in vivo, human
Conditions: human, plasma, po, 8 mg, plasma, Week 4; ROW, Mid 8 mg once daily oral, n = 5; read-out: Cmax, mean
measured_parameter: Cmax (ng/mL)
One number for each entry, in ng/mL.

Inquiry: Look up Cmax: CC(C)(NC(=O)O[C@@H]1CN2CCC1CC2)c1csc(-c2ccc(F)cc2)n1
Reply text: 77.8

---

Test: Plasma pharmacokinetics of Compound 2 in PD participants (LC-MS/MS)
Format: in vivo, human
Settings: human, plasma, po, 8 mg, plasma, Day 1; Japan, Mid 8 mg oral, n = 3; read-out: AUC0-24, Geometric mean
measured_parameter: AUC(0-t) (ng·h/mL)
Answers are plain numbers, in ng·h/mL.

Inquiry: // AUC(0-t) lookup, key: CC(C)(NC(=O)O[C@@H]1CN2CCC1CC2)c1csc(-c2ccc(F)cc2)n1 [Compound 2]
Reply text: 596

---

Experiment: Plasma pharmacokinetics of Compound 2 in PD participants (LC-MS/MS)
Type: in vivo, human
Settings: human, plasma, po, 4 mg, plasma, Day 1; ROW, Low 4 mg oral, n = 4; read-out: tmax, median
Procedure: Participants were randomised to 3 doses of once-daily orally administered Compound 2 or placebo, in sequential cohort design, and were followed up to 36 weeks (52 weeks for Japanese participants). […] The secondary outcome was to evaluate the pharmacokinetic profile of Compound 2 in plasma and cerebrospinal fluid (CSF) over a 4-week period. […] All parameters were assessed at Week 0 and Week 4 after treatment. […]
measured_parameter: Tmax
Give the number first and the unit second.

Inquiry: Need Tmax, item CC(C)(NC(=O)O[C@@H]1CN2CCC1CC2)c1csc(-c2ccc(F)cc2)n1
Reply text: 4.07 h

---

Test: Plasma pharmacokinetics of Compound 2 in PD participants (LC-MS/MS)
Type: in vivo, human
Conditions: human, plasma, po, 4 mg, plasma, Week 4; ROW, Low 4 mg once daily oral, n = 4; read-out: Cmax, Geometric mean
measured_parameter: Cmax (ng/mL)
One number for each entry, in ng/mL.

Inquiry: Would you mind telling me what Cmax value was observed for CC(C)(NC(=O)O[C@@H]1CN2CCC1CC2)c1csc(-c2ccc(F)cc2)n1 ?
Reply text: 41

---

Assay: Plasma pharmacokinetics of Compound 2 in PD participants (LC-MS/MS)
Format: in vivo, human
Conditions: human, plasma, po, 8 mg, plasma, Week 4; ROW, Mid 8 mg once daily oral, n = 5; read-out: AUC0-24, mean
measured_parameter: AUC(0-t)

Inquiry: Any idea what its AUC(0-t) is? The molecule is CC(C)(NC(=O)O[C@@H]1CN2CCC1CC2)c1csc(-c2ccc(F)cc2)n1
Reply text: 1510 ng·h/mL

---

Test: Plasma pharmacokinetics of Compound 2 in PD participants (LC-MS/MS)
Format: in vivo, human
Details: human, plasma, po, 8 mg, plasma, Week 4; Japan, Mid 8 mg once daily oral, n = 3; read-out: AUC0-24, mean
measured_parameter: AUC(0-t) (ng·h/mL)
Numbers only, in ng·h/mL.

Inquiry: Request the reported AUC(0-t) associated with CC(C)(NC(=O)O[C@@H]1CN2CCC1CC2)c1csc(-c2ccc(F)cc2)n1 [Compound 2]
Reply text: 1650

---

Experiment: Plasma pharmacokinetics of Compound 2 in PD participants (LC-MS/MS)
Format: in vivo, human
Conditions: human, plasma, po, 8 mg, plasma, Day 1; Japan, Mid 8 mg oral, n = 3; read-out: AUC0-48, Geometric mean
measured_parameter: AUC(0-t) (ng·h/mL)
Give bare numbers, in ng·h/mL.

Inquiry: What value of AUC(0-t) has been reported for the following molecule? CC(C)(NC(=O)O[C@@H]1CN2CCC1CC2)c1csc(-c2ccc(F)cc2)n1 [Compound 2]
Reply text: 1070

Data origin: patent US20230372313A1
